- TEST_TARGET: GABAB receptor (Rattus norvegicus)
- Sequence (Q9Z0U4 17-960 limits assumed): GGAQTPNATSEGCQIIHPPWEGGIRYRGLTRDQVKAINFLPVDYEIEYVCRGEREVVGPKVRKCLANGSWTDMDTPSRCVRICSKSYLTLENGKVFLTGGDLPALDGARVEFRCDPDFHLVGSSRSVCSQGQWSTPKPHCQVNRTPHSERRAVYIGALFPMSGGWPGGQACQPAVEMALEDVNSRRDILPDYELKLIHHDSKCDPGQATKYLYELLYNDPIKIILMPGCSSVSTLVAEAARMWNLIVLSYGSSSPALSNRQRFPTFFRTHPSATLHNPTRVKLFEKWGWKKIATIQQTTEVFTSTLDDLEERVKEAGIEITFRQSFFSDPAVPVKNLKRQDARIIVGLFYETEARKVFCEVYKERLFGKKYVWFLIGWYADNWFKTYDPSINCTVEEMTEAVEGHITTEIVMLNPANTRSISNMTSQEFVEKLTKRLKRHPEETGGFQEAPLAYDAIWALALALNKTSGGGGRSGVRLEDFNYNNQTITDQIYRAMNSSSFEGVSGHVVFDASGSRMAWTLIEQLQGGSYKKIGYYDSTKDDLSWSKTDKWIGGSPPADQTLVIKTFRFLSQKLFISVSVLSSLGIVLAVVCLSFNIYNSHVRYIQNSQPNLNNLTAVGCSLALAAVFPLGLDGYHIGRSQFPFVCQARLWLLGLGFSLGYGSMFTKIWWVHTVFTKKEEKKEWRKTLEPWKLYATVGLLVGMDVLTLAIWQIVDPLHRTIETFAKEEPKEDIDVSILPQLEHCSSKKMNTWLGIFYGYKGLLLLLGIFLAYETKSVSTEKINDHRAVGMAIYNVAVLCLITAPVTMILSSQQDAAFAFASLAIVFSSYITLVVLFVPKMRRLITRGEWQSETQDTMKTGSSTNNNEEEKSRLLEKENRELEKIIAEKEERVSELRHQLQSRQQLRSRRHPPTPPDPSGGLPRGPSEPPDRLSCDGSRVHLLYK
- Sequence (O88871 41-940 partner): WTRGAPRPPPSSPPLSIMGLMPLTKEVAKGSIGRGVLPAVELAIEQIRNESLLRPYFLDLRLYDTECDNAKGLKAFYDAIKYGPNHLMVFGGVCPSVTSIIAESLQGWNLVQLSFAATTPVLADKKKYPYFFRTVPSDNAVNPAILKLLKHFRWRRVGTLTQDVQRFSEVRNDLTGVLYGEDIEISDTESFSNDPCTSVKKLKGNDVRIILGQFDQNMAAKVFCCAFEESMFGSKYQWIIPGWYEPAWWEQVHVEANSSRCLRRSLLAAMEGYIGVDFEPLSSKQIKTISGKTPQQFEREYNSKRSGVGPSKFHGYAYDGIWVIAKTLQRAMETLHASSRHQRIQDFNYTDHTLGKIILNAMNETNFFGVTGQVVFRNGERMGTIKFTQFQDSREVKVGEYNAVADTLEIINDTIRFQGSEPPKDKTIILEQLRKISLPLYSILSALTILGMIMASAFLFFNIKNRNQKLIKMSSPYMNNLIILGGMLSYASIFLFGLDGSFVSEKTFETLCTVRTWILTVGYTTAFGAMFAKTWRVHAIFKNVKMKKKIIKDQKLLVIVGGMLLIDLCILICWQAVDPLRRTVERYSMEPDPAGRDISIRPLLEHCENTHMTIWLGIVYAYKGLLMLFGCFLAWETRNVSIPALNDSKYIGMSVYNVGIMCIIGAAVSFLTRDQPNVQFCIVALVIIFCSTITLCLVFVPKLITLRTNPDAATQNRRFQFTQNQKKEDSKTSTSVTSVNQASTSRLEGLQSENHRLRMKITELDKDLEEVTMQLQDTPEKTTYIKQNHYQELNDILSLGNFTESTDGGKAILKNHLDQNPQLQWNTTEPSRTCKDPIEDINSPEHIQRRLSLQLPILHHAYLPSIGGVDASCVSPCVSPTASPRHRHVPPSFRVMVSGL
ATTRIBUTE_MEASURED: IC50 (nM)
Just the number in nM, nothing appended.

Query: // lookup IC50 | system=GABAB receptor (Rattus norvegicus) | key= `NCCC[PH](=O)O`
Reply: 1

---

- TEST_TARGET: GABAA receptor
- ASSAY_OVERVIEW: [3H]-GABA radioligand binding assay, GABAA binding (in the presence of baclofen)
- SETUP_CONDITIONS: inhibition of specific GABAA binding to rat synaptic membranes; [³H]-GABA 10 nM, baclofen 100 µM; read-out: IC₅₀ (nM) GABAA
- Method: Male rats were killed by decapitation. The final tissue was resuspended in fresh buffer for assay and transferred in 0.8 ml aliquots to microtubes (0.5 - 1.0 mg protein.tube).
Recorded IC50 by entry
Just the number in nM, nothing appended.

CP(=O)(O)CCCN = 23000

Next up:
Query: Query (molecule): `NCCC[PH](=O)O` ; field requested: IC50
Reply: 420
